Measured Bliss excess, listed per entry for reference.
System: MEL-JUSO (Melanoma)
measurement.protocol: Bliss excess, mean over the matrix (fraction); higher = more synergy

# Bliss excess lookup, item CCN(CCO)CCCOc1ccc2c(Nc3cc(CC(=O)Nc4cccc(F)c4)[nH]n3)ncnc2c1 [AZD2811] + C[C@@H]1COCCN1C2=NC(=NC(=C2)C3(CC3)[S@](=N)(=O)C)C4=C5C=CNC5=NC=C4 [AZD6738] (first compound max 1 µM, 7x7, partner max 10 µM)
-0.0644

* * *

Tested on: SW837 (Colorectal Carcinoma)
measurement.protocol: combination Emax (second highest fraction inhibited in the dose matrix, 72 h); higher = more inhibition; extreme values may be limits of the assay
recorded.metric: combination Emax
A bare number is all that is needed in reply.

# combination Emax lookup, item CN(CCO)CC[C@H](CSc1ccccc1)Nc1ccc(S(=O)(=O)NC(=O)c2ccc(N3CCC([C@@H](O)c4ccccc4-c4ccc(Cl)cc4)CC3)cc2)cc1S(=O)(=O)C(F)(F)F [AZD4320] + CC(=O)O[C@H]1C(=O)[C@@]2(C)[C@H]([C@H](OC(=O)c3ccccc3)[C@]3(O)C[C@H](OC(=O)[C@H](O)[C@@H](NC(=O)c4ccccc4)c4ccccc4)C(C)=C1C3(C)C)[C@]1(OC(C)=O)CO[C@@H]1C[C@@H]2O [Paclitaxel] (first compound max 1 µM, 7x7, partner max 3 µM)
0.878

# combination Emax lookup, item CN(C)CCCOc1ccc(-c2ccc3ncc4c(c3c2)n(C2CCOCC2)c(=O)n4C)cn1 [AZD0156] + C[C@@H]1COCCN1C2=NC(=NC(=C2)C3(CC3)[S@](=N)(=O)C)C4=C5C=CNC5=NC=C4 [AZD6738] (first compound max 1 µM, 7x7, partner max 10 µM)
0.466

# combination Emax lookup, item NC1(C(=O)N[C@@H](CCO)c2ccc(Cl)cc2)CCN(c2ncnc3[nH]ccc23)CC1 [Capivasertib] + CCN(CCO)CCCOc1ccc2c(Nc3cc(CC(=O)Nc4cccc(F)c4)[nH]n3)ncnc2c1 [AZD2811] (first compound max 10 µM, 7x7, partner max 1 µM)
0.261

* * *

Tested on: SW837 (Colorectal Carcinoma)
measurement.protocol: Bliss excess, mean over the matrix (fraction); higher = more synergy
Measured Bliss excess, listed per entry for reference.
A bare number is all that is needed in reply.

Study these solved cases before continuing.
CC1(C)CCC(CN2CCN(c3ccc(C(=O)NS(=O)(=O)c4ccc(NCC5CCOCC5)c([N+](=O)[O-])c4)c(Oc4cnc5[nH]ccc5c4)c3)CC2)=C(c2ccc(Cl)cc2)C1 [Venetoclax] + C=CCn1c(=O)c2cnc(Nc3ccc(N4CCN(C)CC4)cc3)nc2n1-c1cccc(C(C)(C)O)n1 [AZD1775] (first compound max 1 µM, partner max 1 µM) :: 0.0009
Cc1c2c(nn1C)CSCc1cc(n(C)n1)CSc1cc(c3ccccc3c1)OCCCc1c(C(=O)O)n(C)c3c-2c(Cl)ccc13 [AZD5991] + Cn1cnc2c(F)c(Nc3ccc(Br)cc3Cl)c(C(=O)NOCCO)cc21 [Selumetinib] (first compound max 1 µM, 7x7, partner max 3 µM) :: 0.0024

Here is the next item to consider.
# Bliss excess lookup, item NC1(C(=O)N[C@@H](CCO)c2ccc(Cl)cc2)CCN(c2ncnc3[nH]ccc23)CC1 [Capivasertib] + C[C@@H]1COCCN1C2=NC(=NC(=C2)C3(CC3)[S@](=N)(=O)C)C4=C5C=CNC5=NC=C4 [AZD6738] (first compound max 10 µM, 7x7, partner max 10 µM)
-0.0862

* * *

Measured combination Emax, listed per entry for reference.
Test system: LN-18 (Glioblastoma)
measurement.protocol: combination Emax (second highest fraction inhibited in the dose matrix, 72 h); higher = more inhibition; extreme values may be limits of the assay

CN(CCO)CC[C@H](CSc1ccccc1)Nc1ccc(S(=O)(=O)NC(=O)c2ccc(N3CCC([C@@H](O)c4ccccc4-c4ccc(Cl)cc4)CC3)cc2)cc1S(=O)(=O)C(F)(F)F [AZD4320] + C1CN(CCC1(C(=O)N[C@@H](CCO)C2=CC=C(C=C2)Cl)N)C3=NC=NC4=C3C=CN4 [Capivasertib] (first compound max 1 µM, 7x7, partner max 3 µM) :: 0.298

# combination Emax lookup, item COc1nnc2ccc(N3CCC(c4ccc(OCCN5CCN(C)C(=O)[C@H]5C)cc4)CC3)nn12 [AZD5153] + C[C@@H]1COCCN1C2=NC(=NC(=C2)C3(CC3)[S@](=N)(=O)C)C4=C5C=CNC5=NC=C4 [AZD6738] (first compound max 1 µM, 7x7, partner max 10 µM)
0.815

* * *

Test system: L-540 (Hodgkin's Lymphoma)
measurement.protocol: combination Emax (second highest fraction inhibited in the dose matrix, 72 h); higher = more inhibition; extreme values may be limits of the assay
Response key: label 1 means combination Emax >= 0.8; label 0 means combination Emax < 0.8.

Please review the following examples before continuing.
CCN(CCO)CCCOc1ccc2c(Nc3cc(CC(=O)Nc4cccc(F)c4)[nH]n3)ncnc2c1 [AZD2811] + C[C@@H]1COCCN1C2=NC(=NC(=C2)C3(CC3)[S@](=N)(=O)C)C4=C5C=CNC5=NC=C4 [AZD6738] (first compound max 1 µM, 7x7, partner max 10 µM) :: label 1
COc1nnc2ccc(N3CCC(c4ccc(OCCN5CCN(C)C(=O)[C@H]5C)cc4)CC3)nn12 [AZD5153] + C[C@@H]1COCCN1C2=NC(=NC(=C2)C3(CC3)[S@](=N)(=O)C)C4=C5C=CNC5=NC=C4 [AZD6738] (first compound max 1 µM, 7x7, partner max 10 µM) :: label 1
COc1cccc(OCCCN)c1-c1cc(Nc2cnc(C#N)cn2)n[nH]1 [Prexasertib] + CN(C)CCCOc1ccc(-c2ccc3ncc4c(c3c2)n(C2CCOCC2)c(=O)n4C)cn1 [AZD0156] (first compound max 1 µM, 7x7, partner max 1 µM) :: label 1
Cc1c2c(nn1C)CSCc1cc(n(C)n1)CSc1cc(c3ccccc3c1)OCCCc1c(C(=O)O)n(C)c3c-2c(Cl)ccc13 [AZD5991] + C[C@@H](Nc1cc(F)cc(F)c1)c1cc(C(=O)N(C)C)cc2c(=O)cc(N3CCOCC3)oc12 [AZD8186] (first compound max 1 µM, 7x7, partner max 3 µM) :: label 1

Now let's try a different one.
Please indicate if the recorded combination Emax for CC1(C)CCC(CN2CCN(c3ccc(C(=O)NS(=O)(=O)c4ccc(NCC5CCOCC5)c([N+](=O)[O-])c4)c(Oc4cnc5[nH]ccc5c4)c3)CC2)=C(c2ccc(Cl)cc2)C1 [Venetoclax] + CCN(CCO)CCCOc1ccc2c(Nc3cc(CC(=O)Nc4cccc(F)c4)[nH]n3)ncnc2c1 [AZD2811] (first compound max 1 µM, 7x7, partner max 1 µM) meets or exceeds 0.8.
label 0

* * *

System: KYSE-180 (Esophageal Squamous Cell Carcinoma)
measurement.protocol: combination Emax (second highest fraction inhibited in the dose matrix, 72 h); higher = more inhibition; extreme values may be limits of the assay
recorded.metric: combination Emax

Study these solved cases before continuing.
CC1(C)CCC(CN2CCN(c3ccc(C(=O)NS(=O)(=O)c4ccc(NCC5CCOCC5)c([N+](=O)[O-])c4)c(Oc4cnc5[nH]ccc5c4)c3)CC2)=C(c2ccc(Cl)cc2)C1 [Venetoclax] + C=CCn1c(=O)c2cnc(Nc3ccc(N4CCN(C)CC4)cc3)nc2n1-c1cccc(C(C)(C)O)n1 [AZD1775] (first compound max 1 µM, partner max 1 µM) :: 0.739
NC1(C(=O)N[C@@H](CCO)c2ccc(Cl)cc2)CCN(c2ncnc3[nH]ccc23)CC1 [Capivasertib] + CC(C)n1c(=O)n(C)c2cnc3cc(F)c(-c4ccc(OCCCN5CCCCC5)nc4)cc3c21 [AZD1390] (first compound max 10 µM, 7x7, partner max 0.3 µM) :: 0.488
Cc1c2c(nn1C)CSCc1cc(n(C)n1)CSc1cc(c3ccccc3c1)OCCCc1c(C(=O)O)n(C)c3c-2c(Cl)ccc13 [AZD5991] + C=CCn1c(=O)c2cnc(Nc3ccc(N4CCN(C)CC4)cc3)nc2n1-c1cccc(C(C)(C)O)n1 [AZD1775] (first compound max 1 µM, partner max 1 µM) :: 0.95
CC1(C)CCC(CN2CCN(c3ccc(C(=O)NS(=O)(=O)c4ccc(NCC5CCOCC5)c([N+](=O)[O-])c4)c(Oc4cnc5[nH]ccc5c4)c3)CC2)=C(c2ccc(Cl)cc2)C1 [Venetoclax] + C[C@@H]1COCCN1C2=NC(=NC(=C2)C3(CC3)[S@](=N)(=O)C)C4=C5C=CNC5=NC=C4 [AZD6738] (first compound max 1 µM, 7x7, partner max 10 µM) :: 0.638
Cc1cc2ncnn2cc1Nc1ncc2c(n1)n(C1CCOCC1)c(=O)n2C [AZD7648] + CCN(CCO)CCCOc1ccc2c(Nc3cc(CC(=O)Nc4cccc(F)c4)[nH]n3)ncnc2c1 [AZD2811] (first compound max 10 µM, 7x7, partner max 1 µM) :: 0.207

Here is the next item to consider.
# combination Emax lookup, item COc1nnc2ccc(N3CCC(c4ccc(OCCN5CCN(C)C(=O)[C@H]5C)cc4)CC3)nn12 [AZD5153] + CC1(C)CCC(CN2CCN(c3ccc(C(=O)NS(=O)(=O)c4ccc(NCC5CCOCC5)c([N+](=O)[O-])c4)c(Oc4cnc5[nH]ccc5c4)c3)CC2)=C(c2ccc(Cl)cc2)C1 [Venetoclax] (first compound max 1 µM, 7x7, partner max 1 µM)
0.293

Where do the numbers come from? From the supplement of paper PMC11061612.
